Measured normalized growth values are reported for all entries that follow.
# method notes: chemical genetic growth profiling, strain panel (AID 1159580);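 further: tested at 20 µM; growth read once vehicle control cultures reached saturation at 30 °C; 1 = growth at the plate median or of vehicle wells; lower values mean less growth of the strain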
# measurement context: S. cerevisiae deletion strains, growth OD, locus YPL055C, strain LGE1, stronger effect = lower value
Screen size: about 5,500 compounds; about 2,000 (36%) were called active. Not shown: some 18% with an inconclusive outcome. The list shows a part of the results.
measurement type: normalized growth

* COc1cc(OC)c2c(c1)OC(c1ccccc1)CC2=O (stereo unspecified) | 1.01
* COC(=O)COc1ccc(Cl)cc1Cl | 1.02
* O=C1C[C@@H](c2ccc(O)cc2)Oc2cc(O)cc(O)c21 | 1.02
* c1ccc2cc(CC3=NCCN3)ccc2c1 | 1.01
* c1ccc(CC2=NCCN2)cc1 | 0.995
* C[C@@H]1O[C@@H](O[C@H]2[C@@H](Oc3cc(O)c4c(c3)O[C@H](c3ccc(O)cc3)CC4=O)O[C@H](CO)[C@@H](O)[C@@H]2O)[C@H](O)[C@H](O)[C@H]1O | 0.973

* * *

# method notes: chemical genetic growth profiling, strain panel (AID 1159580)
# measurement context: S. cerevisiae deletion strains, growth OD, locus YDR162C, strain NBP2, stronger effect = lower value
Out of some 5,500 compounds screened, about 2,000 (36%) were called active. Not shown: some 18% with an inconclusive outcome. Some of the results follow.
measurement type: normalized growth

* CCC1(c2ccc(N)cc2)CCC(=O)NC1=O (configuration not stated) | 1.03
* CCCCCCCCCCCCC[N+](C)(C)Cc1ccccc1 | 0.0468
* CN1C2CC3C[C@H]1C(O3)C2O (some centres not stated) | 1.01
* COc1ccc2c(c1)[C@@]1(C)CCC(=O)C[C@H]1CC2 | 1.01
* OCCN(CCO)c1nc(N2CCCCC2)c2nc(N(CCO)CCO)nc(N3CCCCC3)c2n1 | 1
* CC(C)(C)CC(C)(C)c1ccc(OCCOCC[N+](C)(C)Cc2ccccc2)cc1 | 0.911
* Oc1c(Cl)c(Cl)c(Cl)c(Cl)c1Cl | 0.607

* * *

# method notes: chemical genetic growth profiling, strain panel (AID 1159580)
# measurement context: S. cerevisiae deletion strains, growth OD, locus YPL078C, strain atp4, stronger effect = lower value
The campaign covered roughly 5,500 compounds. About 2,000 (36%) were called active. Not shown: some 18% with an inconclusive outcome. Some of the results follow.
measurement type: normalized growth

* CC1(C)C2CC[C@]3(C)C(C(=O)C=C4[C@@H]5C[C@@](C)(C(=O)O)CC[C@]5(C)CC[C@]43C)[C@@]2(C)CC[C@@H]1O (some centres undefined) | 1.02
* C[CH2][Hg][S]c1ccccc1C(=O)O | 0.0632
* c1ccc(CC2=NCCN2)cc1 | 1.04
* CC(C(=O)O)c1ccc2c(c1)[nH]c1ccc(Cl)cc12 (centres undefined) | 0.946
* CC(=O)O[C@H]1C(=O)[C@@]2(C)C([C@H](OC(=O)c3ccccc3)[C@]3(O)C[C@H](O)C(C)=C1C3(C)C)[C@]1(OC(C)=O)CO[C@@H]1C[C@@H]2O (some centres undefined) | 0.996
* CC1(C)C2CC[C@]3(C)C(C(=O)C=C4[C@@H]5C[C@@](C)(C(=O)O)CC[C@]5(C)CC[C@]43C)[C@@]2(C)CC[C@@H]1OC(=O)CCC(=O)O (some centres undefined) | 0.962
* COc1c2c(c(CC=C(C)C)c3oc(=O)c(-c4ccc(O)cc4)c(O)c13)OC(C)(C)C=C2 | 0.802
* C[N+](C)(C)CC(=O)[O-] | 0.954
* CC(=O)O[C@]1(C(C)=O)CCC2C3C=C(C)C4=CC(=O)CCC4(C)C3CCC21C (some centres undefined) | 0.855

* * *

# method notes: chemical genetic growth profiling, strain panel (AID 1159580)
# measurement context: S. cerevisiae deletion strains, growth OD, locus YDR335W, strain msn5
Hit rate of the full screen: of about 5,500 compounds, about 2,000 (36%) were called active. Not shown: some 18% with an inconclusive outcome. Rule as the data show it: active = normalized growth mostly below about 0.91 (no sharp cut-off); inconclusive = no clear call, values can overlap the other calls; inactive = mostly above about 0.92. The list shows a part of the results.
Labels: T (active), F (inactive)

- Cc1ccc(O)cc1: F
- CC(C)(C)CC(C)(C)c1ccc(OCCOCC[N+](C)(C)Cc2ccccc2)cc1: T
- C[N+](C)(C)CC(=O)[O-]: F

* * *

# method notes: chemical genetic growth profiling, strain panel (AID 1159580)
# measurement context: S. cerevisiae deletion strains, growth OD, locus YJL164C, strain tpk1, stronger effect = lower value
Out of some 5,500 compounds screened, about 2,000 (36%) were called active. Roughly 18% stayed inconclusive and do not appear here. The list shows a part of the results.
measurement type: normalized growth

• C=CC1=C(C(=O)O)N2C(=O)[C@@H](NC(=O)/C(=N/O)c3csc(N)n3)[C@H]2SC1 = 1.04
• CCc1nc(N)nc(N)c1-c1ccc(Cl)cc1 = 1
• Cc1ccc2c(c1)CC[C@H]1CC(=O)CC[C@]21C = 0.992
• Cc1cccc(Nc2cc(Cl)nc(SCC(=O)O)n2)c1C = 0.978
• Cc1cc(=O)c2c(O)c(C)c(O)cc2o1 = 1.01
• CO[C@H]1C[C@H](O[C@H]2[C@H](C)[C@@H](OC3O[C@H](C)C[C@H](N(C)C)[C@H]3O)[C@@H](C)C[C@]3(CO3)C(=O)[C@H](C)[C@@H](O)[C@@H](C)[C@@H](C)OC(=O)[C@@H]2C)O[C@@H](C)[C@@H]1O (some centres undefined) = 0.982
• CC1(C)S[C@@H]2[C@H](NC(=O)[C@H](NC(=O)N3CCNC3=O)c3ccccc3)C(=O)N2C1C(=O)O (some centres undefined) = 0.996
• Cc1ccc(O)cc1 = 1.02
• c1ccc(CN(CC2=NCCN2)c2ccccc2)cc1 = 0.974
• COc1ccc(-c2cc(=O)c3c(O)cc(OC)c(OC)c3o2)c(OC)c1 = 0.95
• CC(C)N(C(=O)CCl)c1ccccc1 = 0.999
• COc1ccc2c(c1)C1(C)CCC(=O)CC1CC2 (centres undefined) = 1.01
• CCC(C(=O)O)c1ccccc1 (centres undefined) = 0.98
• COc1ccc(C(=O)c2ccccc2O)c(O)c1 = 0.798
• NC(N)=NOCC[C@H](N)C(=O)O = 1.01
• Cc1cc(=O)c2c(O)cc(O)c(C)c2o1 = 0.946
• CN1CCc2cc3c(cc2C1O)OCO3 (centres undefined) = 1
• CNC1(C)C2CCC(C2)C1(C)C (centres undefined) = 0.985
• COc1c2c(c(CC=C(C)C)c3oc(=O)c(-c4ccc(O)cc4)c(O)c13)OC(C)(C)C=C2 = 0.747

* * *

# method notes: chemical genetic growth profiling, strain panel (AID 1159580);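 further: tested at 20 µM; growth read once vehicle control cultures reached saturation at 30 °C; 1 = growth at the plate median or of vehicle wells; lower values mean less growth of the strain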
# measurement context: S. cerevisiae deletion strains, growth OD, locus YDL101C, strain DUN1, stronger effect = lower value
Hit rate of the full screen: of about 5,500 compounds, about 2,000 (36%) were called active. Roughly 18% stayed inconclusive and do not appear here. This is one part of the list.
normalized growth reference
measurement type: normalized growth

* O=[N+]([O-])c1cc(C(F)(F)F)ccc1-n1ccc(-c2cccs2)n1 | 0.959 (inactive)
* COc1cc(OC)c2c(c1)O[C@H](c1ccc(OC)c(OC)c1)[C@@H](O)C2 | 1.02 (inactive)
* FC(F)(F)c1ccnc(-n2ccc(-c3cccs3)n2)n1 | 0.916 (inactive)
* COc1ccc2c(c1)OC[C@@H](Cc1ccc(OC)c(OC)c1)[C@@H]2O | 1.01 (inactive)

* * *

# method notes: chemical genetic growth profiling, strain panel (AID 1159580);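 further: tested at 20 µM; growth read once vehicle control cultures reached saturation at 30 °C; 1 = growth at the plate median or of vehicle wells; lower values mean less growth of the strain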
# measurement context: S. cerevisiae deletion strains, growth OD, locus YAL013W, strain DEP1, stronger effect = lower value
The whole screen tested about 5,500 compounds, of which about 2,000 (36%) were called active. Another 18% or so got no clear call; they are omitted. The list shows a part of the results.
# maps each entry to its normalized growth
measurement type: normalized growth

* CCC1(c2ccccc2)C(=O)NCNC1=O | 1.01
* COc1cc2c(cc1OC)C(=O)C(CC1CCN(Cc3ccccc3)CC1)C2 (stereo not drawn) | 0.953
* O=Nc1ccc2oc(=O)ccc2c1 | 0.945

* * *

# method notes: chemical genetic growth profiling, strain panel (AID 1159580);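 further: tested at 20 µM; growth read once vehicle control cultures reached saturation at 30 °C; 1 = growth at the plate median or of vehicle wells; lower values mean less growth of the strain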
# measurement context: S. cerevisiae deletion strains, growth OD, locus YNL322C, strain KRE1 (second series), stronger effect = lower value
Hit rate of the full screen: of about 5,500 compounds, about 2,000 (36%) were called active. Another 18% or so got no clear call; they are omitted. The list shows a part of the results.
Entries and their normalized growth
measurement type: normalized growth

- COc1cc(O)c2c(=O)cc(C)oc2c1CC=C(C)C: 0.998
- O=C1CC(c2ccc(O)c(O)c2)Oc2cc(O)cc(O)c21 (stereo not given): 0.997
- COc1c(O)cc2oc3cc(O)c(CC=C(C)C)c(O)c3c(=O)c2c1CC=C(C)C: 0.995
- Cc1cc(=O)c2c(O)cc(O)c(C)c2o1: 0.971
- COc1ccc([C@@H]2CC(=O)c3c(O)cc(O)cc3O2)cc1O: 0.987
